The origin of these recorded values is patent US20140235701.

molecular target: NGF (nerve growth factor) (Homo sapiens, UniProt P01138 P01138:122-241); assay: cell_activity; neurite; TF-1 >1; conditions: tags: R&D Systems; chain copies: 2
Sequence (P01138 122-241, one chain of several): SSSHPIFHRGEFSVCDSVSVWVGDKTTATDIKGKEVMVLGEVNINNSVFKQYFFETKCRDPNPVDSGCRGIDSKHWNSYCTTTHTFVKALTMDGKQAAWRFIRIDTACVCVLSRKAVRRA
PARAMETER MEASURED: IC50 (nM)

GGGUCCUGCUGUGUAGUUUCCGUCUGCAUGGUUGUUACCC (ssRNA, 2'-F C/U, dA, 2'-OH G) [SEQ ID NO: 113] :: 0.96
GGGUCCUGCUGCGUAGUUUCCGUCUGCGUAGCUGUUACCC (ssRNA, 2'-F C/U, dA, 2'-OH G) [SEQ ID NO: 106] :: 0.77
GGGUCCUGCUGCGAAGUUUCCGUCUUCGUGGCUGUUACCC (ssRNA, 2'-F C/U, dA, 2'-OH G) [SEQ ID NO: 107] :: 0.967
GGGUCCUGAGCAAGAGUUUCCGUCUCAUGCUCUGUUACCC (ssRNA, 2'-F C/U, dA, 2'-OH G) [SEQ ID NO: 102] :: 0.908
GGGUCCUGAUGUCAAGUUUCCGUCUUGAUGUCUGUUACCC (ssRNA, 2'-F C/U, dA, 2'-OH G) [SEQ ID NO: 104] :: 0.682
GGGUCCUGCUGCGUAGUUUCCUUCUGCGUGGCUGUUACCC (ssRNA, 2'-F C/U, dA, 2'-OH G) [SEQ ID NO: 109] :: 0.687
